Tested on: MCF7/ADR cells
Assay: MTT cytotoxicity and drug accumulation in doxorubicin resistant MCF7/ADR cells
Assay type: cell-based
Details: Homo sapiens, NCI/ADR-RES, 48 h, MCF7/ADR, 48 hrs exposure, MTT, without verapamil
experimental.endpoint: IC50 (µM)

>>> value_measured("COc1cccc2c1C(=O)c1c(O)c3c(c(O)c1C2=O)C[C@@](O)(C(=O)CO)C[C@@H]3O[C@H]1C[C@H](N)[C@H](O)[C@H](C)O1 [Dox, doxorubicin]")
45.2
